Source listed as ChEMBL document CHEMBL5291721.

AC50 overview
target: Kappa-type opioid receptor (Homo sapiens, UniProt P41145); note: assay procedure not described here
Sequence (P41145 whole entry): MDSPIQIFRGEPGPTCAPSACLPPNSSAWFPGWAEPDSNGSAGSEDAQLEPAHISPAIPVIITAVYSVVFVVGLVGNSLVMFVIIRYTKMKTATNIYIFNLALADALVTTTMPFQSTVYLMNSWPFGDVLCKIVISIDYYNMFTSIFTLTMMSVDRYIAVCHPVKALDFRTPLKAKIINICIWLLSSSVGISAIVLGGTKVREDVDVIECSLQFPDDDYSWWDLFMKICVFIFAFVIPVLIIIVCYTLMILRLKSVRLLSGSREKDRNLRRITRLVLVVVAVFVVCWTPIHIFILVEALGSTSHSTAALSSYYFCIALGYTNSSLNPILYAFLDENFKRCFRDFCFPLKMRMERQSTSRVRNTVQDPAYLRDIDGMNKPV

What AC50 value was documented for this compound, CCCc1nc2c(C)cc(-c3nc4ccccc4n3C)cc2n1Cc1ccc(-c2ccccc2C(=O)O)cc1 ?
> 30 µM

What AC50 value was documented for this compound, C/C=C(/C(=C/C)c1ccc(O)cc1)c1ccc(O)cc1 ?
> 10 µM

What AC50 value was documented for this compound, NC(=O)NC(=O)Cc1ccccc1 [PHENACEMIDE] ?
> 10 µM

What AC50 value was documented for this compound, C=CCN1CCc2nc(N)sc2CC1 [TALIPEXOLE] ?
17 µM

What AC50 value was documented for this compound, CCC(NC(C)C)C(O)c1ccc(O)c2[nH]c(=O)ccc12 (centres undefined) ?
> 30 µM

What AC50 value was documented for this compound, O=C1OC(OC(=O)c2cccnc2Nc2cccc(C(F)(F)F)c2)c2ccccc21 (centres undefined) [TALNIFLUMATE] ?
> 30 µM

What AC50 value was documented for this compound, CCC[C@@H]1C[C@@H](C(=O)N[C@@H]([C@H]2O[C@H](SC)[C@H](O)[C@@H](O)[C@H]2O)[C@@H](C)O)N(C)C1 ?
> 10 µM

What AC50 value was documented for this compound, CCCCOc1ccc(C(=O)CCN2CCCCC2)cc1 ?
> 10 µM

What AC50 value was documented for this compound, CCOC(=O)c1ccc(N)cc1 ?
> 10 µM

* * *

target: UniProt:P32238
Sequence (P32238 whole entry): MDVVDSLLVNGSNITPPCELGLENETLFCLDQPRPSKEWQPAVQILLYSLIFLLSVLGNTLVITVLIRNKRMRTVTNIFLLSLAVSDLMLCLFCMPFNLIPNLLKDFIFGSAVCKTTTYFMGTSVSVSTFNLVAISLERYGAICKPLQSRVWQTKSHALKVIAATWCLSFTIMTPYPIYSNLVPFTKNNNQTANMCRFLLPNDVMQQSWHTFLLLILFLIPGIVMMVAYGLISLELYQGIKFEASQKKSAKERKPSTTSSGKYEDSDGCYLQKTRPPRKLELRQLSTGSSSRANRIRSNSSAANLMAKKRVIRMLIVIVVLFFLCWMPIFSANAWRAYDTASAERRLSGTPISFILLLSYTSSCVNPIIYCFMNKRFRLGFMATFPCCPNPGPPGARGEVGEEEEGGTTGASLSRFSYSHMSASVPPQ
quantity_measured: AC50

Observed AC50 on UniProt:P32238 for CCC(NC(C)C)C(O)c1ccc(O)c2[nH]c(=O)ccc12 (centres undefined) [PROCATEROL] , please.
> 30 µM

Observed AC50 on UniProt:P32238 for O=C1OC(OC(=O)c2cccnc2Nc2cccc(C(F)(F)F)c2)c2ccccc21 (centres undefined) [TALNIFLUMATE] , please.
> 30 µM

Observed AC50 on UniProt:P32238 for O=C(CCCN1CCC(O)(c2ccc(Br)cc2)CC1)c1ccc(F)cc1 [BROMPERIDOL] , please.
> 30 µM

Observed AC50 on UniProt:P32238 for CNC(=C[N+](=O)[O-])NCCSCc1csc(CN(C)C)n1 [NIZATIDINE] , please.
> 10 µM

Observed AC50 on UniProt:P32238 for O=C(NCCO[N+](=O)[O-])c1cccnc1 [NICORANDIL] , please.
> 30 µM

Observed AC50 on UniProt:P32238 for C=CCN1CCc2nc(N)sc2CC1 [TALIPEXOLE] , please.
> 30 µM

Observed AC50 on UniProt:P32238 for NS(=O)(=O)c1cc2c(cc1Cl)N=C(CSCc1ccccc1)NS2(=O)=O [BENZTHIAZIDE] , please.
> 10 µM

Observed AC50 on UniProt:P32238 for CCCCOc1ccc(C(=O)CCN2CCCCC2)cc1 [DYCLONINE] , please.
> 30 µM

Observed AC50 on UniProt:P32238 for Cn1c(=O)c2c(ncn2CCOC(=O)C(C)(C)Oc2ccc(Cl)cc2)n(C)c1=O [THEOFIBRATE] , please.
> 30 µM

* * *

The following molecules each carry a recorded AC50 for UniProtKB P08913.
Sequence (P08913 whole entry): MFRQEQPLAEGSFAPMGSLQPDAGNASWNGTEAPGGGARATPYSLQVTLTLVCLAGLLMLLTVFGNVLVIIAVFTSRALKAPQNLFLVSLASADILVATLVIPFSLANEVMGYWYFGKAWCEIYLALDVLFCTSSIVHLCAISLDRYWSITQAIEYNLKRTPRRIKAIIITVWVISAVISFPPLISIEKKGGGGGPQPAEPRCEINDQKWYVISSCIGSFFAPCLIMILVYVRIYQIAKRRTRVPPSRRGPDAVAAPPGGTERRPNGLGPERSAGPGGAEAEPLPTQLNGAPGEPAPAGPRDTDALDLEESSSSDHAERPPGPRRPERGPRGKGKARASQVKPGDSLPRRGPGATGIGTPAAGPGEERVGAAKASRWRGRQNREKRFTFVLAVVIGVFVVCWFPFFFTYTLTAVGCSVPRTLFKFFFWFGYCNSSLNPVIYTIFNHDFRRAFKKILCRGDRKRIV

Observed AC50 on UniProtKB P08913 for C=C1CC[C@H](O)C/C1=C/C=C1\CCC[C@]2(C)[C@@H]([C@H](C)CCCC(C)C)CC[C@@H]12 [CHOLECALCIFEROL] , please.
> 30 µM

Observed AC50 on UniProtKB P08913 for CCC1=C[C@@H]2CN(C1)Cc1c([nH]c3ccccc13)[C@@](C(=O)OC)(c1cc3c(cc1OC)N(C)[C@H]1[C@@](O)(C(=O)OC)[C@H](OC(C)=O)[C@]4(CC)C=CCN5CC[C@]31[C@@H]54)C2 [VINORELBINE] , please.
> 30 µM

Observed AC50 on UniProtKB P08913 for CN1CCCN(C(c2ccccc2)c2ccc(Cl)cc2)CC1 (centres undefined) [HOMOCHLORCYCLIZINE] , please.
1.35 µM

Observed AC50 on UniProtKB P08913 for Nc1cccc2c1C(=O)N(C1CCC(=O)NC1=O)C2=O (centres undefined) [POMALIDOMIDE] , please.
> 30 µM
